- Tested on: HEK-293T
- test_description: Multiplex assay against HEK293T
- Format: toxicity, cell-based
- condition_context: human, 24 h, 1 µM, compound concentration 1 uM, replicate 1
quantity_kind: Population Hoechst High Intensity Objects (%)
Just the number in %, nothing appended.

Recorded Population Hoechst High Intensity Objects (%), per entry:
O=C1NC(=O)C(c2cnc3ccccn23)=C1c1cn2c3c(cc(F)cc13)CN(C(=O)N1CCCCC1)CC2 : 17
C=C1/C(=C\C=C2/CCC[C@]3(C)[C@@H]([C@H](C)/C=C/[C@H](C)C(C)C)CC[C@@H]23)C[C@@H](O)C[C@@H]1O : 23
C=CCn1c(=O)c2cnc(Nc3ccc(N4CCN(C)CC4)cc3)nc2n1-c1cccc(C(C)(C)O)n1 : 9
CN1CCC(=C2c3ccccc3CC(=O)c3sccc32)CC1.O=C(O)/C=C/C(=O)O [KETOTIFEN FUMARATE] : 8
CCOC(=O)c1c(C)[nH]c2ccc3c(c12)CN1CCc2cc(OC)ccc2C1O3 (stereo unspecified) : 7

# evaluate next
Task item: Param item = "S=C(NCCCc1c[nH]cn1)NCCCN(Cc1ccc(Cl)c(Cl)c1)c1ccc(Br)cn1" ; retrieve measured Population Hoechst High Intensity Objects (%).
Reply: 15

###

- System: U2OS
- test_description: Multiplex assay against U2OS
- Format: toxicity, cell-based
- condition_context: human, 12 h, 1 µM, compound concentration 1 uM, replicate 2
Reported Population Normal (%) values for the following compounds.
Just the number in %, nothing appended.

COc1cc2ncnc(Nc3ccc(F)c(Cl)c3)c2cc1NC(=O)/C=C/CN1CCCCC1 [DACOMITINIB ANHYDROUS] : 91
CCNc1cc(N[C@H]2CC[C@H](O)CC2)nc(Nc2ccc3c(ccn3Cc3ccccc3)c2)n1 : 88
Cl.Oc1ccc2c3c1O[C@H]1c4[nH]c5c(c4C[C@@]4(O)[C@@H](C2)N(CC2CC2)CC[C@]314)C[C@@]1(O)[C@H]2Cc3ccc(O)c4c3[C@@]1(CCN2CC1CC1)[C@H]5O4 : 90

Task item: Param item = "CN[C@@H]1C[C@H]2O[C@@](C)([C@@H]1OC)n1c3ccccc3c3c4c(c5c6ccccc6n2c5c31)C(=O)NC4" ; retrieve measured Population Normal (%).
Reply: 92

Task item: Param item = "CCOc1cc(C(=O)N2CCC(N3CCN(C)CC3)CC2)ccc1Nc1ncc2c(n1)N(C1CCCC1)c1ccccc1C(=O)N2C" ; retrieve measured Population Normal (%).
Reply: 89

Task item: Param item = "COc1ccc(S(=O)(=O)N(CCO)c2ccccc2CN(C)C/C=C/c2ccc(Cl)cc2)cc1.O=P(O)(O)O" ; retrieve measured Population Normal (%).
Reply: 91

Task item: Param item = "O=C(Nc1ccc(Cl)cc1)Nc1cccc(-c2cccc(N3CCCC3)n2)c1" ; retrieve measured Population Normal (%).
Reply: 92

Task item: Param item = "O=C1N/C(=N/c2ccccc2F)S/C1=C\c1ccc(C(=O)O)cc1" ; retrieve measured Population Normal (%).
Reply: 91

Task item: Param item = "CCCS(=O)(=O)Nc1ccc(F)c(C(=O)c2c[nH]c3ncc(Cl)cc23)c1F" ; retrieve measured Population Normal (%).
Reply: 84

Task item: Param item = "Cc1ccc2nc(NCCN)c3ncc(C)n3c2c1.O=C(O)C(F)(F)F.O=C(O)C(F)(F)F" ; retrieve measured Population Normal (%).
Reply: 86

Task item: Param item = "COc1ccc(-c2ccc3c(N4CCOCC4)nc(N4C[C@@H](C)O[C@@H](C)C4)nc3n2)cc1CO" ; retrieve measured Population Normal (%).
Reply: 92

Task item: Param item = CN1C2CCC1CC(OC(c1ccc(F)cc1)c1ccc(F)cc1)C2.Cl (configuration not stated) ; retrieve measured Population Normal (%).
Reply: 97

Task item: Param item = CN(C)C(=O)C(CCN1CCC(O)(c2ccc(Cl)cc2)CC1)(c1ccccc1)c1ccccc1.Cl [LOPERAMIDE HYDROCHLORIDE] ; retrieve measured Population Normal (%).
Reply: 92

Source: ChEMBL document CHEMBL4689842
